# System: SNB-19 CNS
# assay_name: NCI tumour cell line growth inhibition, 48 h
assay_readout: TGI

-- ask Can you share its TGI? I mean this molecule: Cc1cc(C)nc(SCC(=O)OC2CC(C)CCC2C(C)C)n1 (centres undefined)
-- reply 45.9 µM

-- ask # TGI lookup, item NNC1=N/C(=C\c2ccco2)C(=O)N1
-- reply > 100 µM

-- ask Look up TGI for this molecule: Cc1ccc(N=C2S/C(=C3/CCC=C3N3CCOCC3)N(c3ccc(Cl)cc3)C2=Nc2ccc(C)cc2)cc1
-- reply > 100 µM

-- ask What does the data say about its TGI? Entry: N#CCCN(CCC#N)c1ccc(C(N=Nc2ccccc2)=Nc2ccc(Cl)cc2)cc1
-- reply > 100 µM

-- ask Please report the recorded TGI for COc1ccc(N2C(=O)c3c(c4[nH]c5ccc(OC)cc5c4c4ccc(C(C)(C)C)cc34)C2=O)cc1 .
-- reply > 100 µM

-- ask Recorded TGI for COc1cccc(NC(=O)C(C)(C)C)c1SSc1c(NC(=O)C(C)(C)C)cccc1OC , please?
-- reply > 100 µM

-- ask Entry under review: C1COCCOCCOCCOCCOCCO1.[Cl][Sn]([Cl])([c]1ccccc1)[c]1ccccc1 . Reported TGI?
-- reply 14.5 µM

-- ask Please report the recorded TGI for O=C(O)C1CCC(=O)N1S(=O)(=O)c1ccccc1 (centres undefined) .
-- reply > 100 µM

-- ask Name the reported TGI value associated with the molecule COC(=O)/C=C(/C(=O)OC)c1cc2ccc3c([nH]c4ccccc43)c(C)c-2c1
-- reply 23.2 µM

-- ask Fill blank: measured TGI of the molecule COC1=C(Br)C(O)C2(C=C1Br)CC(C(=O)NCCCCNC(=O)C1=NOC3(C=C(Br)C(OC)=C(Br)C3O)C1)=NO2 (centres undefined) is ____.
-- reply > 100 µM

-- ask I would be grateful if you could share the reported TGI for c1ccc(Nc2nc(-c3ccccn3)cs2)nc1 .
-- reply > 100 µM

-- ask Please look up its TGI: O=C1C(Cl)C2(CC(/C=C/c3ccccc3O)=NN2c2cccc(S(=O)(=O)O)c2)N1c1nc2ccccc2s1 (centres undefined)
-- reply > 100 µM

-- ask May I ask what TGI has been recorded for COC(=O)NC(=Nc1ccc(Oc2ccccc2)cc1NC=O)NC(=O)OC ?
-- reply > 100 µM

-- ask Form field: reported TGI of Nc1ccccc1NC(=O)c1ccc(CN2CCC/C(=C\c3ccccn3)C2=O)cc1
-- reply > 100 µM

-- ask So what's the measured TGI for this one? N.N.O=P([O-])([O-])CN(CCN(CP(=O)([O-])[O-])CP(=O)([O-])[O-])CP(=O)([O-])[O-].[Pt+2]
-- reply > 100 µM

-- ask Find the recorded TGI belonging to COc1cccc2c3ccccc3c3nc[nH]c3c12 and report it.
-- reply > 100 µM

-- ask Returns the measured TGI for the input molecule. Input: CC[C@@H](C(=O)[C@H](C)[C@H](O)[C@@H](C)[C@H]1O[C@H]([C@@H](CC)C(=O)O)CC[C@H]1C)C1O[C@]2(C=C[C@@H](O)[C@]3(CC[C@@](C)([C@H]4CC[C@](O)(CC)[C@H](C)O4)O3)O2)[C@H](C)C[C@@H]1C (some centres undefined)
-- reply 4.25 µM

-- ask What does the data say about its TGI? Entry: CCC(C)[C@H](NC(=O)NC(=O)NC(=O)CI)C(=O)OC (some centres undefined)
-- reply 31.6 µM

-- ask Give the measured TGI of C=CCc1cc(C=C(C#N)C#N)cc(OC)c1O .
-- reply > 100 µM

-- ask Suppose we examine the molecule Cc1cc(Cl)ccc1NC(=O)CCCC(=O)C1CCC/C1=N\NC(=O)CC#N (centres undefined) ; what TGI value has been reported?
-- reply > 100 µM

-- ask Which TGI value is on record for CC(C)COC(=O)OC(=O)c1ccc(N(C)Cc2cnc3nc(N)nc(N)c3n2)cc1 ?
-- reply > 100 µM

-- ask Return reported TGI; argument: O=c1cc(N2CCCC2)[nH]c(=O)n1-c1ccc(F)cc1
-- reply > 100 µM

-- ask Tell me the measured TGI of NCCCCCCCCCCCn1c2c(c3ccccc3c1=O)C(=O)c1ccccc1-2 , please.
-- reply 38.9 µM

-- ask Sample CO/C(=C/C(=O)C(Cl)(Cl)Cl)CC/C(=C\C(=O)C(Cl)(Cl)Cl)OC — what was its TGI?
-- reply > 100 µM

-- ask Fill in: TGI of COC(=O)N/N=C(\C(=O)Nc1cccc([N+](=O)[O-])c1)c1nc2ccc([N+](=O)[O-])cc2[nH]c1=O is ___
-- reply > 100 µM

-- ask For the molecule O=C(NNc1ccc(F)cc1)C1CCC(CNS(=O)(=O)c2ccc(Cl)c(Cl)c2)CC1 (centres undefined) , what TGI is on record?
-- reply > 50 µM

-- ask Tell me the measured TGI of CC(=O)C=NCC(=O)O , please.
-- reply > 100 µM

-- ask Returns the measured TGI for the input molecule. Input: CCN(CC)CCOc1ccc(/C=C2\C[C@H]3[C@H]4CC=C5C[C@@H](O)CC[C@]5(C)[C@H]4CC[C@]3(C)[C@H]2O)cc1OC
-- reply > 50 µM

-- ask Item COC(=O)C1(C(=O)OC)N=C(C)OC1c1ccccn1 (centres undefined) has what recorded TGI?
-- reply > 100 µM

-- ask Record request: TGI value, item CSc1cc(Br)ccc1-n1c(C(=O)c2ccccc2)c(SC)n(-c2ccccc2)c1=O
-- reply > 100 µM

-- ask Give its TGI value. Item: O=C1C=CC(=Nc2ccccc2)c2ccccc21
-- reply > 100 µM

-- ask I have this molecule here, CCCC[n+]1c(/C=C\c2c(OC)cc(OC)cc2OC)ccc2ccccc21 , and I need its recorded TGI.
-- reply 6.79 µM

-- ask Look at this molecule and give its reported TGI. COC(=O)C1=CC2CC1C(S(=O)(=O)c1ccccc1)C2S(=O)(=O)c1ccccc1 (centres undefined)
-- reply > 100 µM

-- ask TGI for Cc1cc(C)n2c(-c3ccccc3)c(C)cc2n1 ?
-- reply > 100 µM

-- ask TGI lookup needed for CSc1nc2c(nc(N)n2C2OC(COC(C)=O)C(OC(C)=O)C(OC(C)=O)C2OC(C)=O)c(=O)n1C (centres undefined) , thanks.
-- reply > 100 µM

-- ask Item O=C(COc1ccc(OCC(=O)NNC2=NC(c3cc(F)c(Cl)cc3Cl)CS2)c(Cl)c1)NNC1=NC(c2cc(F)c(Cl)cc2Cl)CS1 (centres undefined) has what recorded TGI?
-- reply > 100 µM

-- ask Need TGI of CN(C)CCC=C1c2ccccc2C(C)(C)c2ccccc21 , thanks.
-- reply 28.5 µM

-- ask Would you kindly share the measured TGI for CN1C[C@H]2[C@@H](C1=O)[C@H](c1ccccc1)ON2C ?
-- reply > 100 µM

-- ask Which TGI is listed for Cc1c(-c2ccccc2)c(C#N)c2nnn(C3CCCCC3)c(=O)n12 ?
-- reply > 100 µM
